Exercise: for every item that follows, state its recorded IC50.
Target: native AMPA receptors
Experiment: Radioligand binding at native AMPA receptors
Conditions: read-out: AMPA IC50, native iGluRs (synaptosomes); rat synaptosomes, [3H]AMPA
Please reply with the bare figure in µM and do not write the unit itself.

### Prompt Which value of IC50 has been reported for Cl.O=C(O)c1cc(-c2cnn[nH]2)cc([C@H]2CCN[C@@H]2C(=O)O)c1 in the records?
### Response 21

### Prompt Which value of IC50 has been reported for Cl.O=C(O)c1cc(-c2cccnc2)cc([C@H]2CCN[C@@H]2C(=O)O)c1 in the records?
### Response 29

### Prompt Which value of IC50 has been reported for Cl.O=C(O)c1cc(-c2ccncc2)cc([C@H]2CCN[C@@H]2C(=O)O)c1 in the records?
### Response 27

### Prompt Which value of IC50 has been reported for Cl.O=C(O)c1cc(Br)cc([C@H]2CCN[C@@H]2C(=O)O)c1 in the records?
### Response 26

### Prompt Which value of IC50 has been reported for Cl.O=C(O)c1cc(NS(=O)(=O)c2ccccn2)cc([C@H]2CCN[C@@H]2C(=O)O)c1 (racemic) [(±)-5l] in the records?
### Response 27

### Prompt Which value of IC50 has been reported for O=C(O)c1cccc([C@H]2[C@H](CCNCc3ccccc3)CN[C@@H]2C(=O)O)c1 in the records?
### Response 15

### Prompt Which value of IC50 has been reported for Cl.Cl.Nc1cc(C(=O)O)cc([C@H]2CCN[C@@H]2C(=O)O)c1 (racemic) [(±)-5j] in the records?
### Response 52
